System: wheat
Assay: Post-emergence herbicidal activity against cereal crops (wheat) +/- safener, crop selectivity
Type: in vivo
Conditions: 250 g/ha, plus safener cloquintocet-mexyl (CQC) applied at 50 g/ha, 100%=total damage to plant, 0%=no damage
Experimental: Seeds of a variety of monocotyledonous and dicotyledonous test plants are sown in standard soil in pots. […] 15 days after application of the test herbicide (15DAA) (for post-emergence), and 20 days after application of the test herbicide (20DAA) (for pre-emergence), the test plants are evaluated visually, and an assessed percentage phytotoxicity score is given for each herbicidal application on each plant species (with 100%=total damage to plant; 0%=no damage to plant).
// values below are reported Post-emergence herbicidal activity against wheat (percentage phytotoxicity), +CQC
State the answer as a number, implicitly in %.

Guide cases for Post-emergence herbicidal activity against wheat (percentage phytotoxicity), +CQC, answers given:
Cc1cc(C)c(C2C(=O)CC(CCNS(=O)(=O)c3ccc(Cl)c(Cl)c3)C2=O)c(C)c1 (centres unmarked) [Compound A78] | 0
Cc1cc(-n2cc(Cl)cn2)cc(C)c1C1C(=O)CC(CCNC(=O)Nc2ccncn2)C1=O.Cl (centres unmarked) [Compound A33] | 10
Cc1cc(C)c(C2C(=O)CC(CCNC(=O)NC(=O)c3c(F)cccc3F)C2=O)c(C)c1 (centres unmarked) [Compound A48] | 50
Cc1cc(C)c(C2C(=O)CC(CCNS(=O)(=O)c3ccc(F)c(Cl)c3)C2=O)c(C)c1 (centres unmarked) [Compound A75] | 0
Cc1cc(-n2cc(Cl)cn2)cc(C)c1C1C(=O)CC(CCNC(=O)NOC(C)(C)C)C1=O (centres unmarked) [Compound A25] | 0

In: Read the entry Cc1cc(C)c(C2C(=O)CC(CCNC(=O)Nc3cc(C(C)(C)F)ncn3)C2=O)c(C)c1 (centres unmarked) [Compound A16] and write its reported Post-emergence herbicidal activity against wheat (percentage phytotoxicity), +CQC.
Out: 50

In: Return reported Post-emergence herbicidal activity against wheat (percentage phytotoxicity), +CQC. Input compound: CON=C(C#N)C(=O)NCCC1CC(=O)C(c2c(C)cc(-n3cc(Cl)cn3)cc2C)C1=O (centres unmarked) [Compound A42]
Out: 10

In: Look up and state reported Post-emergence herbicidal activity against wheat (percentage phytotoxicity), +CQC for CON=C(C)C(=O)NCCC1CC(=O)C(c2c(C)cc(-n3cc(Cl)cn3)cc2C)C1=O (centres unmarked) [Compound A38]
Out: 30

====

test system: Alopecurus myosuroides (ALOMY); assay: Glasshouse assay for herbicidal activity, pre-/post-emergence (percentage phytotoxicity); type: in vivo; conditions: Alopecurus myosuroides, 360 h; Rate 250 g/ha; post-emergence; visual assessment 15 DAA; 100%=total damage, 0%=no damage; read-out: Post-emergence herbicidal activity (percentage phytotoxicity), ALOMY POST
Binary call on pest or weed control at 250 g/ha: Fulfilled from 90% upward, Not fulfilled beneath that.

Cc1cc(C)c(C2C(=O)CC(CCNS(=O)(=O)c3ccc(Cl)cc3Cl)C2=O)c(C)c1 (centres unmarked) [Compound A84] | Not fulfilled
Cc1cc(-c2ccc(F)cc2)cc(C)c1C1C(=O)CC(CCNC(=O)C2=NOC(C)(C)C2)C1=O (centres unmarked) [Compound A109] | Fulfilled
Cc1cc(C)c(C2C(=O)CC(CCNC(=O)NC(=O)c3ccccc3)C2=O)c(C)c1 (centres unmarked) [Compound A46] | Not fulfilled

In: In plain terms: is recorded pest or weed control at 250 g/ha at least 90% for CON=C(C)C(=O)NCCC1CC(=O)C(c2c(C)cc(-n3cc(Cl)cn3)cc2C)C1=O (centres unmarked) [Compound A38] ?
Out: Not fulfilled

In: Exam item: decide whether the reported pest or weed control at 250 g/ha for Cc1cc(C)c(C2C(=O)CC(CCNC(=O)NC(C)(C)C)C2=O)c(C)c1 (centres unmarked) [Compound A5] is at least 90%.
Out: Not fulfilled

In: State whether the measured pest or weed control at 250 g/ha reaches 90%, counting equality as reaching it, for Cc1cc(C)c(C2C(=O)CC(CCNC(=O)N(C)C(C)(C)C)C2=O)c(C)c1 (centres unmarked) [Compound A14]
Out: Not fulfilled

In: In plain terms: is recorded pest or weed control at 250 g/ha at least 90% for CC(=NOCc1ccccc1)C(=O)NCCC1CC(=O)C(c2c(C)cc(-n3cc(Cl)cn3)cc2C)C1=O (centres unmarked) [Compound A41] ?
Out: Not fulfilled

In: For this molecule, is measured pest or weed control at 250 g/ha 90% or higher? Cc1cc(C)c(C2C(=O)CC(CCNS(=O)(=O)c3ccccc3C)C2=O)c(C)c1 (centres unmarked) [Compound A87]
Out: Not fulfilled

In: // inclusive: pest or weed control at 250 g/ha at least 90%? input: Cc1ccc(C(=O)NC(=O)NCCC2CC(=O)C(c3c(C)cc(C)cc3C)C2=O)cc1 (centres unmarked) [Compound A55]
Out: Not fulfilled

In: Does the reported pest or weed control at 250 g/ha for Cc1cc(-c2ncc(Cl)cn2)cc(C)c1C1C(=O)CC(CCNC(=O)C2=NOC(C)(C)C2)C1=O (centres unmarked) [Compound A118] fall at or above the 90% mark?
Out: Fulfilled

In: Could you verify whether the entry Cc1cc(C)c(C2C(=O)CC(CCNC(=O)Nc3ccccn3)C2=O)c(C)c1.Cl (centres unmarked) [Compound A3] shows pest or weed control at 250 g/ha of no less than 90%?
Out: Fulfilled

In: Decide: is the reported value of pest or weed control at 250 g/ha for Cc1cc(-n2cc(Cl)cn2)cc(C)c1C1C(=O)CC(CCNC(=O)Nc2ncccn2)C1=O.Cl (centres unmarked) [Compound A32] equal to or greater than 90%?
Out: Not fulfilled
